Target Entity: D(1A) dopamine receptor (Homo sapiens) (UniProt P21728)
Sequence (P21728 whole entry, looked up): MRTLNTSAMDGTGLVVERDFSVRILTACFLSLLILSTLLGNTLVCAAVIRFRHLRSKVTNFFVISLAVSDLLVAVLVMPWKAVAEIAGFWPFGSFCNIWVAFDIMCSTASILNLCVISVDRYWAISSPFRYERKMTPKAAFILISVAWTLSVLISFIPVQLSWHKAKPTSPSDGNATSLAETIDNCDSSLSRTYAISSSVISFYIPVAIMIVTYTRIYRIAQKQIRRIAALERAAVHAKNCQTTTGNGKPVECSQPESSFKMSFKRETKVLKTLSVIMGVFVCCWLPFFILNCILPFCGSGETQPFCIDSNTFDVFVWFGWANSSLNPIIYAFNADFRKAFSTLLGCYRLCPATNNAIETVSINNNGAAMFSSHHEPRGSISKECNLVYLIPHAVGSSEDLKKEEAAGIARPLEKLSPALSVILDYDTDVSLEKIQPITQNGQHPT
Assay Method Text: NVS_GPCR_hDRD1: NovaScreen (NVS) G Protein-Coupled Receptor Assay for human Dopamine Receptor D1 (DRD1) (AID 2283269)
Results filed as inconclusive are left out. Activity calls are given as the source filed them. The calls were made as follows: active = hit-call score of the fitted dose curve at least 0.9, where 1 is the maximum; inconclusive = response in the unintended direction; inactive = score below 0.9.
Result category, one only: TRUE for active, FALSE for inactive

As a guide, the following entries are already answered.
[
  {
    "Record Smiles": "CCCCCCCCCC",
    "Target Entity": "D(1A) dopamine receptor (Homo sapiens) (UniProt P21728)",
    "Cat": "FALSE"
  },
  {
    "Record Smiles": "CCn1nc(C)c2c1C(=O)NCC(c1ccc(O)cc1)=N2",
    "Target Entity": "D(1A) dopamine receptor (Homo sapiens) (UniProt P21728)",
    "Cat": "FALSE"
  },
  {
    "Record Smiles": "COc1cc(C(C)C)c2c(c1)S(=O)(=O)N(COc1cc(=O)n3cccc(OCCN4CCCCC4)c3n1)C2=O",
    "Target Entity": "D(1A) dopamine receptor (Homo sapiens) (UniProt P21728)",
    "Cat": "TRUE"
  }
]

Lookup: Hi, do you know how CCCCCCCCCCCCCCCCOS(=O)(=O)O came out in this test?
Found: TRUE
